# Test system: IEC-6 cytotoxicity, ATP luminescence
# PROTOCOL_SUMMARY: cytotoxicity in IEC-6 intestinal cells, late-stage follow-up, cytotoxicity control for KLF5 inhibitor project, cell-based, luminescence, dose response, round 1 (AID 434956)
The source made the active and inactive calls. How the calls were made is not given here.
We begin with a simple list: items and their reported IC50.

# example entries with known answers
1) Cc1ccc(OCC(=O)Nc2ccc3nn(-c4cccc(C(F)(F)F)c4)nc3c2)cc1C
> 39.8 µM (inactive)
2) CC(C)(C)c1ccc(-c2noc(CCc3nc4ccccc4[nH]3)n2)cc1
31.8 µM (inactive)
3) O=C(Nc1cc2nn(-c3ccccc3)nc2cc1Cl)C1CC1
> 39.8 µM (inactive)
4) CC(C)(C)c1ccc(-c2coc(CCC(=O)Nc3ccccn3)n2)cc1
> 39.8 µM (inactive)
5) CC(=O)c1sc(NC(=O)c2ccc3ncsc3c2)nc1C
> 39.8 µM (inactive)

Determine from records and report IC50 for Cc1nc(NC(=O)c2ccc3ncsc3c2)sc1C(=O)N(C)C
> 39.8 µM (inactive)

Look up IC50 of CCNC(=O)c1ccc2nc(Nc3nc4ccc(F)cc4s3)sc2c1 and report it.
14.7 µM (inactive)

// Input: CCOc1ccc2nc(Nc3nc4ccc(F)cc4s3)sc2c1 . Output its IC50 only.
> 39.8 µM (inactive)

Look up and report measured IC50 for this entry: O=C(Cc1ccccc1)Nc1cc2nn(-c3ccccc3)nc2cc1Cl
> 39.8 µM (inactive)

Given CC(C)(C)c1ccc(-c2noc(CCC(=O)Nc3ccncc3)n2)cc1 , respond with its IC50.
25.6 µM (inactive)

Using known records, supply IC50 for COc1ccc2nc(Nc3nc4ccc(F)cc4s3)sc2c1
> 39.8 µM (inactive)

Recall and state the measured IC50 for CC(=O)c1sc(NC(=O)c2ccc3ncsc3c2)nc1-c1ccccc1 .
> 39.8 µM (inactive)

# return recorded IC50 for input CC(NC(=O)c1ccccc1)c1nc(-c2ccc(C(C)(C)C)cc2)no1 (stereo not drawn)
41.4 µM (inactive)

Dear colleague, please send me the reported IC50 for CCNC(=O)c1sc(NC(=O)c2ccc3ncsc3c2)nc1C when you can.
> 39.8 µM (inactive)

Note IC50 for the compound shown: CS(=O)(=O)c1ccc2nc(Nc3nc4ccc(F)cc4s3)sc2c1
19.1 µM (inactive)

Input O=C(Nc1cc2nn(-c3ccccc3)nc2cc1Cl)C1COc2ccccc2C1 (stereo not drawn) , output reported IC50.
> 39.8 µM (inactive)

Please give measured IC50 of the following entry: Cc1cccc(NC(=O)CCc2nc(-c3ccc(C(C)(C)C)cc3)no2)c1
> 39.8 µM (inactive)

Report IC50 for Cc1ccc(-n2nc3ccc(NC(=O)COc4ccc(C)c(C)c4)cc3n2)cc1
> 39.8 µM (inactive)

Read off the recorded IC50 for CC(C)(C)c1ccc(-c2noc(CCC(=O)Nc3ccccc3)n2)cc1
> 39.8 µM (inactive)

Please supply the value of reported IC50 for the item CC(C)(C)c1ccc(-c2noc(CCCC(=O)Nc3ccccc3Cl)n2)cc1
> 39.8 µM (inactive)

====

The following compounds are listed with their measured IC50 values.
# System: IEC-6 cytotoxicity, ATP luminescence
# PROTOCOL_SUMMARY: cytotoxicity in IEC-6 intestinal cells, late-stage follow-up, cytotoxicity control for KLF5 inhibitor project, cell-based, luminescence, dose response, round 1 (AID 434956)
Activity calls are given as the source filed them. The rule behind the calls is not given here.

1. O=C(COc1ccccc1)Nc1ccc2nn(-c3cccc(Cl)c3)nc2c1
> 39.8 µM (inactive)

Please respond with reported IC50 (system IEC-6 cytotoxicity, ATP luminescence) for CC(C)(C)C(=O)Nc1ccc2nn(-c3ccccc3)nc2c1 .
> 39.8 µM (inactive)

Report its IC50 with IEC-6 cytotoxicity, ATP luminescence as the test system: CC(C)(C)C(=O)Nc1ccc2nn(-c3ccc(F)cc3)nc2c1
> 39.8 µM (inactive)

Quote IC50 with test system IEC-6 cytotoxicity, ATP luminescence for CC(C)(C)c1ccc(-c2noc(CCC(=O)Nc3ccc(N4CCOCC4)nc3)n2)cc1
> 39.8 µM (inactive)

Using IEC-6 cytotoxicity, ATP luminescence as the test system, report measured IC50 of CN(C)C(=O)c1ccc2nc(Nc3nc4ccc(F)cc4s3)sc2c1 .
15.7 µM (inactive)

State measured IC50 of the compound CCOc1ccc(NC(=O)CCc2nc(-c3ccc(C(C)(C)C)cc3)no2)cc1 with IEC-6 cytotoxicity, ATP luminescence.
> 39.8 µM (inactive)

Recall the reported IC50 of CC1(C)CC(=O)c2sc(NC(=O)c3ccc4ncsc4c3)nc2C1 when tested on IEC-6 cytotoxicity, ATP luminescence.
> 39.8 µM (inactive)

Answer briefly: IC50 recorded on IEC-6 cytotoxicity, ATP luminescence for Nc1cc2nn(-c3ccccc3)nc2cc1Cl
> 39.8 µM (inactive)

Jot down IC50 (IEC-6 cytotoxicity, ATP luminescence) of COc1ccc(-n2nc3ccc(NC(=O)C4CCN(S(=O)(=O)c5ccc(Cl)cc5)CC4)cc3n2)cc1 .
31.2 µM (inactive)

For IEC-6 cytotoxicity, ATP luminescence, give the measured IC50 of the entry CC(C)C(=O)Nc1ccc2nn(-c3ccc(Cl)cc3)nc2c1
> 39.8 µM (inactive)

Report value: IC50, system: IEC-6 cytotoxicity, ATP luminescence, compound: CC(C)c1ccc2nc(Nc3nc4ccc(F)cc4s3)sc2c1
> 39.8 µM (inactive)
